- measured target: aldose reductase (Bos taurus)
- Construct: partially purified aldose reductase is isolated in known manner from bovine lenses; from tissue; host or cells: bovine lenses
- experimental details: in vitro inhibition of partially purified aldose reductase isolated from bovine lenses (reduction of glucose to sorbitol, spectrophotometric)
- Type: biochemical
- condition description: in vitro test
result type: pIC50
Schema: pIC50 number; meaning minus log10 of the concentration expressed in molar units.

Inquiry: pIC50 for Cc1c(C)c(S(=O)(=O)C[N+](=O)[O-])c(C)c2c1OC(C)(C)CC2 ?
Reply text: 7.89

The origin of these recorded values is patent US5185452A.
